assay: yeast display, Sf9 membrane polyspecificity reagent, FACS + sequencing; frameworks hold sequencing errors
endpoint_label: polyreactivity (PSR sort gate)

A selection of reference data follows.
sequence_chain	result
QVQLVESGGGLVQAGGSLRLSSAASGSIFNYNAMGWYRQAPGKERELVAAISSSGSTNYADSVKGRFTISRDNAKNTVYLQMNSLKPEDTAVYYCAADYGSYGVVRAVSIEYEYWGQGTQVTVSS	low polyreactivity
QVQLVESGGGLVQAGGSLRLSCAASGSIFPDYAMGWYRQAPGKERELVAAIDTSTTDTYYADSVKGRFTISRDNAKNTVYLQMNSLKPEDTAVYYCAADAYDDPYGYWGQGTQVTVSS	high polyreactivity
EDQLEESGGGLVQAGGSLRLSCAASGLIFPSYVMGWYRQAPGKERELVASISRVGSTYADSVKGRFTISRDNAKNTVYLQMNSLKPEDTAVYYCAKQVVWRGFRGLDYWGQGTQVTLSS	high polyreactivity
QVQLVESGGGLVQAGGSLRLSCAASGSTFRDYDMGWYRQAPGKERELVAAISLSGGRTHYADSVKGRFTISRDNAKNTVYLQMNSLKPEDTAVYYCAARNTGPVQYYYWGQGTQVTVSS	low polyreactivity
QDQLVESGGCLVQAGGSLRLSCAAYGSTFYRYTMGWYRQAPGKERELVAAISRSGGRTYYADSVKGRFTLSRDNAKNTVFVQINSLKPEDTAVYYCNAEIASSAVQAQEGDYWGQGTQVTVSS	high polyreactivity
QGQLVESGGGLVQAGGSLRLSCAASGITFYYYAMGWYRQAPGKERELVAAINWSGTSTYYADSVKGRFTISRDNAKNTVYLQMNSLKPEDTAVYYCNAERGRSFWWAYDYWGQGTQVTVSS	low polyreactivity
QVQLVESGGGLVQAGGSLRLSCAASGRTFYYNAMGWYRQAPGKERQLVAAITSSGSTYYADSVKGRFTISRDNAKNTVYLQMNSLKPEDTAVYYCASVTSYSHYRLSGWYRFEYWGQGTQVTVSS	high polyreactivity
QVQLVESGGGLVQAGGSLRLSCAASGRIFGTNAMGWYRQAHGKERELVADITSGGSTNYADSVKGRFTISRDNAKNTVYLQMNSLKPEDTAVSYCAADVIGDLPWYRDEYWGQGTQVTVSS	low polyreactivity
QVQLVESGGGLVQAGGSLRLSCAASGRTFYSYAMGWYRQAPGKERELVAAISGRGGRTYYADSVKGRFTISRDNAKNTVYLQMNSLKPEDTAVYYCAKGGYAIRYYGFDYWGQGTQVTVSS	high polyreactivity
QVQLVESGGGLVQAGGSLRLSCAASGRTLKYNAMGWYRQAPGKERELVAAISYSGSSTYYADSVNGRFTISRDKAKHTVYLQMNSLKPEDTEVYYCNTARPTAAYDYWGQGTQVTVSS	low polyreactivity

Please turn your attention to the following entry.
Please indicate polyreactivity (PSR sort gate) recorded for QVQLVESGGGLVQAGGSISLSCAASGRIFPTNDMGWYRQAPGKERELVASIDSVGSTKYADSVKGRFTISRDNAKNTVYLQMNSLKPEDTAVYYRALQVLNYDYWGQGTQVTVSS
low polyreactivity

Values compiled from the nanobody polyreactivity screen of Harvey et al. (2022).
